The values you see were collected from PubChem BioAssay (Tox21).

- System name: Estrogen receptor (Homo sapiens) (UniProt P03372)
- Sequence (P03372 whole entry, looked up): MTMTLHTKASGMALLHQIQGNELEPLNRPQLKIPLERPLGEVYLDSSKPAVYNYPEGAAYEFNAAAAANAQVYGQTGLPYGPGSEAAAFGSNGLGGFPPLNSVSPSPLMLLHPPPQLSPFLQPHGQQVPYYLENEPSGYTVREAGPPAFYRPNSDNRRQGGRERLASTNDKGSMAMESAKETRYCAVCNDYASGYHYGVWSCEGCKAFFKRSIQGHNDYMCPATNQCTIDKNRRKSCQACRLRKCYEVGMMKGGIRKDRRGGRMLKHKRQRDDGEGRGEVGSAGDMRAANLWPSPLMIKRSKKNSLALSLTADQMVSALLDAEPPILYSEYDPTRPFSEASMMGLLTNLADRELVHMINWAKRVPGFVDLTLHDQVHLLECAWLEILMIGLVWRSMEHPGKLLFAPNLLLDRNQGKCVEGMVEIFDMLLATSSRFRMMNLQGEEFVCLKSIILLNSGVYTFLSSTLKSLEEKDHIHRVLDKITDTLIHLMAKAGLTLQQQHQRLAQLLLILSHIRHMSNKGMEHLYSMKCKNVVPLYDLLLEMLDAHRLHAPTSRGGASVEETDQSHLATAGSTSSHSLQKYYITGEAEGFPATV
- Procedure details: qHTS assay to identify small molecule agonists of the estrogen receptor alpha (ER-alpha) signaling pathway (AID 743075);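 note: HEK293 GripTite cells with ER-alpha and UAS-driven beta-lactamase reporter; % is set by controls: 0 for no effect and ±100 for the full control effect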
- Assay setup: HEK293 ER-alpha-UAS-bla, beta-lactamase FRET ratio, 18 h; series mostly up to 70.1 µM
Results filed as inconclusive are left out. Activity calls are given as the source filed them. Calls come from the whole dose curve.
# valid calls are T (active), F (inactive); nothing else

Some solved cases for reference:
[[record]]
molecule = "COc1ccc(C(C)=O)cc1"
system_name = "Estrogen receptor (Homo sapiens) (UniProt P03372)"
class_assignment = "F"

[[record]]
molecule = "O=C(C(=O)c1ccc(Br)cc1)c1ccc(Br)cc1"
system_name = "Estrogen receptor (Homo sapiens) (UniProt P03372)"
class_assignment = "F"

[[record]]
molecule = "CC(=O)SCc1ccco1"
system_name = "Estrogen receptor (Homo sapiens) (UniProt P03372)"
class_assignment = "F"

[[record]]
molecule = "OCCC1CCCCN1 (stereo not drawn)"
system_name = "Estrogen receptor (Homo sapiens) (UniProt P03372)"
class_assignment = "F"

[[record]]
molecule = "CCN(CC)CCc1nc(-c2ccccc2)no1"
system_name = "Estrogen receptor (Homo sapiens) (UniProt P03372)"
class_assignment = "F"

[[record]]
molecule = "O=S(=O)(O)c1ccc(O)c2ncccc12"
system_name = "Estrogen receptor (Homo sapiens) (UniProt P03372)"
class_assignment = "F"

[[record]]
molecule = "NC1CCN(c2nc3c(cc2F)c(=O)c(C(=O)O)cn3-c2ccc(F)cc2F)C1 (stereo not drawn)"
system_name = "Estrogen receptor (Homo sapiens) (UniProt P03372)"
class_assignment = "F"

[[record]]
molecule = "CCCCCOC(=O)COc1cc(N2C(=O)C3=C(CCCC3)C2=O)c(F)cc1Cl"
system_name = "Estrogen receptor (Homo sapiens) (UniProt P03372)"
class_assignment = "F"


Each molecule tested received a call. Report the one for Cc1ccc2c(ccc3ccccc32)c1 .
F

----------
- Procedure details: A CellTox Green Cytotoxicity Assay to monitor cytotoxicity in HepG2 cells - 16 hour (AID 1224876); note: % is set by controls: 0 for no effect and ±100 for the full control effect; nearly all actives have a fitted effect of over 45% in size
- Assay setup: CellTox Green fluorescence; series mostly up to 76.8 µM
Results filed as inconclusive are left out. Active and inactive are the calls of the source. Calls come from the whole dose curve; as a rule, active = well fitted activation curve with a large enough effect in the repeat runs; inconclusive = weak or mixed curves; inactive = flat fitted curve, though single readings scatter.
Measured parameter: cytotoxicity increase

Below are worked cases with known answers.
[[record]]
compound = "O=C(Nc1ccccc1)OCC(CN1CCCCC1)OC(=O)Nc1ccccc1 (configuration not stated)"
value_measured = "inactive"

[[record]]
compound = "CC[C@]12CCCN3CCc4c(n(c5ccccc45)C(=O)C1)[C@@H]32"
value_measured = "inactive"

[[record]]
compound = "C=CCCCCCC"
value_measured = "inactive"

[[record]]
compound = "CC(C)(C)c1cc(CO)cc(C(C)(C)C)c1O"
value_measured = "inactive"

[[record]]
compound = "OCCC1CCCCN1 (configuration not stated)"
value_measured = "inactive"


Please give the measured cytotoxicity increase for this compound: CCOC(=O)CC(=O)c1cc(F)c(Cl)nc1Cl
inactive

What measured cytotoxicity increase goes with O=S1(=O)N=C(O)c2ccccc21 ?
inactive

----------
- Procedure details: qHTS assay to test for compound auto fluorescence at 535 nm (green) in HepG2 cells (AID 720675); note: % is set by controls: 0 for no effect and ±100 for the full control effect
- Assay setup: green autofluorescence 485/535 nm, 1 h; series mostly up to 91.3 µM
- From the text: National Center for Advancing Translational Sciences [NCATS] NIH Chemical Genomics Center [NCGC] U.S. Environmental Protection Agency [EPA] National Institutes of Environmental Health Sciences [NIEHS] National Toxicology Program [NTP] U.S. Food and Drug Administration [FDA] Compound auto fluorescence often interferes with screening of the compound library against various biological targets and signaling pathways. Some of these compounds may have fluorophoric properties. […]
Active and inactive are the calls of the source. The call rests on the fitted dose curve; in most records, active means well fitted curve in the direction sought with a large enough effect in the repeat runs; inconclusive means weak or mixed curves; inactive means flat fitted curve, though single readings scatter.
Measured parameter: fluorescence, % of fluorescein control

Study these solved cases before continuing.
[[record]]
smiles_structure = "COc1ccc([C@@H]2Sc3ccccc3N(CCN(C)C)C(=O)[C@@H]2OC(C)=O)cc1"
measured_parameter = "fluorescence, % of fluorescein control"
value_measured = "inactive"

[[record]]
smiles_structure = "CC[C@]12CCCN3CCc4c(n(c5ccccc45)C(=O)C1)[C@@H]32"
measured_parameter = "fluorescence, % of fluorescein control"
value_measured = "0.0406% [at 18.6 µM] (inactive)"

[[record]]
smiles_structure = "N#Cc1cc2ccccc2c2ccccc12"
measured_parameter = "fluorescence, % of fluorescein control"
value_measured = "inactive"

[[record]]
smiles_structure = "Cc1occc1S"
measured_parameter = "fluorescence, % of fluorescein control"
value_measured = "inactive"

[[record]]
smiles_structure = "CC(=O)[C@@]1(O)CC[C@H]2[C@@H]3C[C@H](C)C4=CC(=O)CC[C@]4(C)[C@H]3CC[C@@]21C"
measured_parameter = "fluorescence, % of fluorescein control"
value_measured = "inactive"


--- query ---
Please give the measured fluorescence, % of fluorescein control for this compound: Cc1cc(CC(=O)O)c(C)n1-c1ccc(Cl)cc1
inactive
